The following variants are shown together with reported protein stability index values.
B1: PRPH (parent)
chain: DEIEFLKKLHEEELRDLQVSVESQ

variants of: B1; assay: protein stability index of a GFP-peptide fusion (GPS, HEK-293T) (PSI 1-6); higher = more stable; settings: c terminus: a fixed tail appended;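 also: lentivirally expressed fusions sorted by FACS into six bins by GFP to DsRed ratio, PSI derived from sequencing read proportions per bin multiplied by bin number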
// keep it numeric: no unit symbol after the value

Worked set:
E13T	4.05
E4R	3.98
L14G	5.14

Give the measured protein stability index of `K7T` .
3.15

Param item = `E2P` ; retrieve measured protein stability index.
4.13

Return reported protein stability index; argument: `V21C`
4.98

Sample `E2T` — what was its protein stability index?
2.98

Form field: reported protein stability index of `L14K`
4.92

Sample `I3R` — what was its protein stability index?
5.28

Would you kindly share the measured protein stability index for `L9N` ?
5.34
